B1: BCL2L13 (parent)
chain: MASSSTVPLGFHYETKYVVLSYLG

variants of: B1; test: protein stability index of a GFP-peptide fusion (GPS, HEK-293T) (PSI 1-6); higher = more stable; details: c terminus: a fixed tail appended;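 also: lentivirally expressed fusions sorted by FACS into six bins by GFP to DsRed ratio, PSI derived from sequencing read proportions per bin multiplied by bin number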
PARAMETER: protein stability index
No unit in the answer, only the number.

In the examples that follow, each entry is paired with its recorded protein stability index.
variant_notation=T15M assay_value=2.79
variant_notation=K16R assay_value=2.55
variant_notation=Y22N assay_value=1.63
variant_notation=Y17E assay_value=1.86
variant_notation=L9N assay_value=3.25
variant_notation=H12I assay_value=2.75
variant_notation=S4V assay_value=2.91
variant_notation=T15L assay_value=2.1

Now, please, on to the next variant.
Task item: So what does the record say about protein stability index for L23M ?
Reply: 3.69
